Tested on: NCI-H522
ASSAY PROTOCOL: NCI tumour cell line growth inhibition, 48 h
Active and inactive are the calls of the source. Rule as the data show it: active = GI50 up to about 1.1 µM and inactive = higher.
Return exactly one item of active, inactive

Check out these entries, answers already filled in.
Ask: What classification did "CC[C@@]1(C[C@H]2C[C@@]3(C(=O)OC)c4[nH]c5ccccc5c4CCN3C2=O)COC2(CCCCC2)O1" end up with in this test?
Result: inactive

Ask: Also, COc1ccc(C(O)/C(=N\NC(N)=S)c2nc3ccc([N+](=O)[O-])cc3nc2O)cc1OC (centres undefined) please.
Result: inactive

Ask: Also, ClCCCN1CCCCC1CCl (centres undefined) please.
Result: inactive

Ask: Also, "O=C(c1ccccc1)c1c(C(F)(F)F)[n+]([O-])c2ccccc2[n+]1[O-]" please.
Result: active

Ask: Also, "CCOC(=O)/C(=C\NCC(OCC)OCC)c1nc2ccccc2[nH]1" please.
Result: inactive

Others:
Ask: What classification did "Cc1c2ccncc2c(C)c2c1[nH]c1ccc(OC(C)(C)C)cc12" end up with in this test?
Result: inactive

Ask: Also, COc1ccc(Oc2cccc(C3C4C(=O)N(c5ccc(C)c(Cl)c5)C(=O)C4ON3C(C(N)=O)c3ccccc3)c2)cc1 (centres undefined) please.
Result: inactive

Ask: Also, "COc1cc2c(/C=C3/C(=O)Nc4cccc(Cl)c43)c(Cl)[nH]c2cc1C" please.
Result: inactive

Ask: Also, "Cc1ccc(/C=N/Nc2cnccn2)s1" please.
Result: inactive
